assay: CaMKII Cell-Based Activity: CaMKII activity in neonatal rat ventricular myocytes (NRVM) was measured by monitoring the phosphorylation level of phospholamban using high-content imaging. NRVMs were plated in a clear bottom 384-well plate in medium supplemented with 10% fetal bovine serum (FBS) and incubated at 37° C., 5% CO2 overnight. The medium was changed to a serum-free medium and compounds were dosed to the cells. The cells were incubated at 37° C., 5% CO2 for 4 hours and were then treated with 100 nM ATX-II (Alomone Labs) to activate CaMKII. 10 minutes after the addition of ATX-II, the cells were fixed with 4% formaldehyde followed by permeabilization with 0.1% triton X100. The fixed cells were stained with an anti-phospho-phospholamban primary antibody (Santa Cruz Biotechnology) and an Alexa488-labeled anti-rabbit IgG secondary antibody (Life Technologies Corporation) as well as Hoechst 33342 (Life Technologies Corporation). The cells were imaged using an ArrayScan VTI (Cellomics) and analyzed for cells containing a positive fluorescent signal at 485 nm, reported as % responder. The % responders were plotted against the compound concentration to determine the compounds EC50.
observationType: EC50 (nM)
Numbers only here, please. The scale is nM.

smilesEntry: CCN(CC)[C@@H](C)CNC(=O)c1cc(-c2cnn3ccc(-c4cccs4)nc23)nc(N2CC[C@H]2C(=O)O)c1
observationType: EC50
experimentalResult: 89.3
--
smilesEntry: CCN(CC)[C@@H](C)CNC(=O)c1cc(-c2cnn3ccc(-c4cccs4)nc23)nc(N2CCC(OC)CC2)c1
observationType: EC50
experimentalResult: 110
--
smilesEntry: CNC(=O)[C@@H]1CCN1c1cc(C(=O)NC[C@H](C)N)cc(-c2cnn3ccc(-c4cccs4)nc23)n1
observationType: EC50
experimentalResult: 6740

Find the recorded EC50 belonging to CCN(CC)[C@@H](C)CNC(=O)c1cc(-c2cnn3ccc(-c4cccs4)nc23)nc(N2CC[C@H]2C(=O)N(C)OC)c1 and report it.
28.6

Find the recorded EC50 belonging to N[C@H]1C[C@@H]2CCC[C@H]1N2C(=O)c1ccnc(-c2cnn3ccc(-c4ccccc4)nc23)c1 and report it.
74

Find the recorded EC50 belonging to CCN(CC)[C@@H](C)CNC(=O)c1cc(-c2cnn3ccc(-c4cccs4)nc23)nc(N2CC[C@H]2C(=O)N2CC(C)(C)C2)c1 and report it.
79

Find the recorded EC50 belonging to CCN(CC)[C@@H](C)CNC(=O)c1cc(-c2cnn3ccc(-c4ccsc4)nc23)nc(N2CC(OC)C2)c1 and report it.
14.9

Find the recorded EC50 belonging to CCN(CC)[C@@H](C)CNC(=O)c1cc(N)nc(-c2cnn3ccc(-c4cccs4)nc23)c1 and report it.
10.5

// data source = ChEMBL document CHEMBL5725801
